Target: human nociceptin/orphanin FQ (N/OFQ) peptide receptor (human) (UniProt P41146)
Sequence (P41146 whole entry): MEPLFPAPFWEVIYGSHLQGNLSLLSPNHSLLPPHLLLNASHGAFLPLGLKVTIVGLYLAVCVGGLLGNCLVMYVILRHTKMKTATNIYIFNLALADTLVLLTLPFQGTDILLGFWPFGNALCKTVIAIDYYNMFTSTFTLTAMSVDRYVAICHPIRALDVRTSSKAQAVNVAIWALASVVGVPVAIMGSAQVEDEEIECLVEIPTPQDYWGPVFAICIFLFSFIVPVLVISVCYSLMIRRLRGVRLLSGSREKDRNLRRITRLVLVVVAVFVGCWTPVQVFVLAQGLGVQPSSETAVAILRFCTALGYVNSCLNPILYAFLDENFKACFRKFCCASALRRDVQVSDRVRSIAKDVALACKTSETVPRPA
Ends that are not written are not given here.
measureName: E max, Ca^2+ mobilization in CHO cells with human NOP and Gαqi5 (% over baseline)

>>> reportedresult("FGGFTGCRKSARKLANQ-NH2 (also: homodimer: Cys7-Cys7 disulfide to second copy) [[[Cys^7]N/OFQ-NH2]2]")
293
>>> reportedresult("FGGFTGARKCARKLANQ-NH2 (also: homodimer: Cys10-Cys10 disulfide to second copy) [[[Cys^10]N/OFQ-NH2]2]")
305
>>> reportedresult("FGGFTGARKSARKCANQ-NH2 (also: homodimer: Cys14-Cys14 disulfide to second copy) [[[Cys^14]N/OFQ-NH2]2]")
241
>>> reportedresult("FGGFTGACKSARKLANQ-NH2 (also: homodimer: Cys8-Cys8 disulfide to second copy) [[[Cys^8]N/OFQ-NH2]2]")
322
>>> reportedresult("FGGFTGARKSARKLCNQ-NH2 (also: homodimer: Cys15-Cys15 disulfide to second copy) [[[Cys^15]N/OFQ-NH2]2]")
297
>>> reportedresult("FGGFTGARKSACKLANQ-NH2 (also: homodimer: Cys12-Cys12 disulfide to second copy) [[[Cys^12]N/OFQ-NH2]2]")
346
>>> reportedresult("FGGFTGARKSARCLANQ-NH2 (also: homodimer: Cys13-Cys13 disulfide to second copy) [[[Cys^13]N/OFQ-NH2]2]")
247
>>> reportedresult("FGGFTGARKSARKLACQ-NH2 (also: homodimer: Cys16-Cys16 disulfide to second copy) [[[Cys^16]N/OFQ-NH2]2]")
312
>>> reportedresult("FGGFTGARCSARKLANQ-NH2 (also: homodimer: Cys9-Cys9 disulfide to second copy) [[[Cys^9]N/OFQ-NH2]2]")
289
